- System: P388 leukemia ip, CD2F1 mice, survival T/C
- METHOD: NCI In Vivo Anticancer Drug Screen. Data for tumor model P388 Leukemia (intraperitoneal) in CD2F1 (CDF1) mice
- EXPERIMENTAL PARAMETERS: endpoint: median survival time; dose: 120.0 mg/kg/injection; schedule: Q01DX005 (ip); vehicle: saline with Tween-80; higher = longer survival
Toxic doses and inconclusive results are not listed.
PARAMETER MEASURED: T/C

Example entries begin here.
                                   molecule             value
0  N/N=C1/C(=O)N(c2ccc(S(N)(=O)=O)cc2)C(=O)C1C(=O)Nc1ccc(S(N)(=O)=O)cc1 (configuration not stated)  101 % of control
1  NC(=O)C(N)CCc1ccccc1 (configuration not stated)  102 % of control
2  CC(C)[Si](C#CC[Si](C(C)C)(C(C)C)C(C)C)(C(C)C)C(C)C   98 % of control
3  COc1cccc(C(Nc2nncs2)Nc2nncs2)c1[N+](=O)[O-]   98 % of control
4  COc1ccc(-c2cn(-c3ccccc3)c3ncnc(N)c23)cc1  103 % of control
5               CN(C)c1ccc2[nH]c3ccccc3c2c1  108 % of control
6  Cc1ccc(S(=O)(=O)CC(=O)CC(=O)C(=O)Nc2ccc(C)cc2C)cc1  106 % of control
7                  Cc1nc2cc(N)c(Cl)cc2[nH]1  107 % of control
8           O=S(=O)(Nc1ccccc1Cl)c1ccc(F)cc1  104 % of control
9           CCN1C(=NCCO)NS(=O)(=O)c2ccccc21  106 % of control

Task: Quick check: T/C of COc1ccc(C2Cc3cc(OC)c(OC)cc3C(c3ccccc3)N2)cc1OC (configuration not stated) ?
Result: 88 % of control

Task: Item CN=C([O-])c1c(=O)o[nH][n+]1-c1ccccc1 has what recorded T/C?
Result: 98 % of control
